- target desc: acetylcholinesterase (AChE) (Homo sapiens, UniProt P22303)
- Sequence (P22303 32-614): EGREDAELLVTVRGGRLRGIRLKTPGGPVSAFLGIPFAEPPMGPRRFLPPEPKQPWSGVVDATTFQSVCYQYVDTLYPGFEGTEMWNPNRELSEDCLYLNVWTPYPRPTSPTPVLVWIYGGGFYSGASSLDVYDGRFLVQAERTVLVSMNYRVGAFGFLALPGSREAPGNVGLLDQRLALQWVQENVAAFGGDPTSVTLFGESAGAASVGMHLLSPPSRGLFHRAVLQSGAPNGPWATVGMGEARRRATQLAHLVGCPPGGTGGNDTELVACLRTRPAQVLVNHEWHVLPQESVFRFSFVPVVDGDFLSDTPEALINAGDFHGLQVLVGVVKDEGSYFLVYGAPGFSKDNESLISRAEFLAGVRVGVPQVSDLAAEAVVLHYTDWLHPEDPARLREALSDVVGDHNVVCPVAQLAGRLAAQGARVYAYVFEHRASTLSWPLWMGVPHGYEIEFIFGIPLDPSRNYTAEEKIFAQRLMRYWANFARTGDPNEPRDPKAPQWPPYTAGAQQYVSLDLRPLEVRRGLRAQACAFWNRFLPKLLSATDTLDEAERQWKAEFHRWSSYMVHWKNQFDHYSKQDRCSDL
- measurement notes: biochemical
- Type: biochemical
- condition label: compound 10 nM; absorbance 412 nm, 12 min incubation; read-out: % Inhibition (10 nM)

molecule	target desc	display unit	inhibition at 0.01 µM
COc1cc2c(cc1OCc1ccc3cccc(N)c3[n+]1C)CC(CC1CCN(Cc3ccccc3)CC1)C2=O (centres unmarked)	acetylcholinesterase (AChE) (Homo sapiens, UniProt P22303)	%	100
COc1cc2c(cc1OC[n+]1cccc3cccc(N)c31)CC(CC1CCN(Cc3ccccc3)CC1)C2=O (centres unmarked)	acetylcholinesterase (AChE) (Homo sapiens, UniProt P22303)	%	100
COc1cc2c(cc1OCc1ccc3ccc[n+](C)c3c1)CC(CC1CCN(Cc3ccccc3)CC1)C2=O (centres unmarked)	acetylcholinesterase (AChE) (Homo sapiens, UniProt P22303)	%	100
COc1ccc2c(c1)C=C/C(=C/Oc1cc3c(cc1OC)C(=O)C(CC1CCN(Cc4ccccc4)CC1)C3)N2C(C)C (centres unmarked)	acetylcholinesterase (AChE) (Homo sapiens, UniProt P22303)	%	75
COc1cc2c(cc1OCc1ccc3ccccc3[n+]1C(C)C)CC(CC1CCN(Cc3ccccc3)CC1)C2=O (centres unmarked)	acetylcholinesterase (AChE) (Homo sapiens, UniProt P22303)	%	100
